experimentalTarget: Sepiapterin reductase (Homo sapiens, UniProt P35270)
Sequence (P35270 whole entry): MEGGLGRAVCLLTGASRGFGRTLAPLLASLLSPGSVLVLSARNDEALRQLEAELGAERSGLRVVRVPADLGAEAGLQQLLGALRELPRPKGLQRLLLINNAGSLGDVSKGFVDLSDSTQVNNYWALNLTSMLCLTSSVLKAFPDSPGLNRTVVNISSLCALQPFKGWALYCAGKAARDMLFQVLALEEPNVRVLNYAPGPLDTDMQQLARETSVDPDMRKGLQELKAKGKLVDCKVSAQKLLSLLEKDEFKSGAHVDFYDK
testName: Inhibition of sepiapterin reductase (unknown origin)
conditions: read-out: pIC50 (converted)
Hi! Just check whether IC50 is below 3 µM. Below gives Yes, equal or above gives No.

Worked examples follow.
compound | discreteLabel
CCOC(=O)CNCc1c(C(=O)CC)c2cc(OC)c(Br)cc2n1C | No
COc1cc(C(F)(F)F)ccc1-c1nccc2cc(S(=O)(=O)Nc3ccc(F)cn3)ccc12 | Yes

Shift focus to the following entry.
query: API: query returns whether the compound falls strictly under 3 µM in IC50. Query: Cc1ccc(C(=O)c2ccccc2O)c(O)n1
result: No

====

experimentalTarget: Sepiapterin reductase (Homo sapiens, UniProt P35270)
testName: Inhibition of sepiapterin reductase (unknown origin)
conditions: read-out: pIC50 (converted)
Class field: derived from IC50; ranges range 1: < 3 µM; range 2: ≥ 3 µM and < 7 µM; range 3: ≥ 7 µM

compound | discreteLabel
O=C(CN(c1cccc(Cl)c1)S(=O)(=O)c1cccnc1)N[C@H]1CC[C@H](n2c(=O)[nH]c3ccccc32)CC1 | range 3
O=S(=O)(Nc1ccccn1)c1ccc2c(c1)OCCO2 | range 1
CC1(C)C(O)=C(C(N)=O)C(=O)c2cc(C(=O)NCCc3ccccc3)ccc21 | range 2
O=C(O)c1ccc2c(C(c3ccc(Cl)cc3Cl)c3c[nH]c4cc(C(=O)O)ccc34)c[nH]c2c1 | range 3
O=C(Nc1cccc(C(F)(F)F)c1)N1CCC(S(=O)(=O)Nc2nccs2)CC1 | range 3
CC1(C)C=Cc2c(c(CCO)c3occ(-c4ccc(O)c(O)c4)c(=O)c3c2O)O1 | range 2
Cn1nc(-c2cccnc2)c2c1NC(=O)C[C@@H]2c1ccc2cccc(O)c2n1 | range 2
O=S(=O)(Nc1nccs1)c1ccc2c(c1)OCCN2CCc1ccncc1 | range 1
Cc1cc(C(=O)C2C(=O)CC(C)CC2=O)c(C)c2c1S(=O)(=O)CCc1cn(C)nc1-2 (centres undefined) | range 1
CCOC(=O)c1c(C)n(C)c2cc(Nc3ccccc3)c(O)cc12 | range 2

query: Which category does the recorded IC50 put CCn1ncc(C(=O)c2cc(Cl)c(N(C)S(=O)(=O)N(C)C)cc2OC)c1O in?
result: range 1

query: Which category does the recorded IC50 put FC(F)(F)Oc1cccc(-n2nnnc2N2CCN(c3ncnc4sc5c(c34)CCC5)CC2)c1 in?
result: range 3
